experimental-target: Gcr1 (UniProt P07261)
Sequence: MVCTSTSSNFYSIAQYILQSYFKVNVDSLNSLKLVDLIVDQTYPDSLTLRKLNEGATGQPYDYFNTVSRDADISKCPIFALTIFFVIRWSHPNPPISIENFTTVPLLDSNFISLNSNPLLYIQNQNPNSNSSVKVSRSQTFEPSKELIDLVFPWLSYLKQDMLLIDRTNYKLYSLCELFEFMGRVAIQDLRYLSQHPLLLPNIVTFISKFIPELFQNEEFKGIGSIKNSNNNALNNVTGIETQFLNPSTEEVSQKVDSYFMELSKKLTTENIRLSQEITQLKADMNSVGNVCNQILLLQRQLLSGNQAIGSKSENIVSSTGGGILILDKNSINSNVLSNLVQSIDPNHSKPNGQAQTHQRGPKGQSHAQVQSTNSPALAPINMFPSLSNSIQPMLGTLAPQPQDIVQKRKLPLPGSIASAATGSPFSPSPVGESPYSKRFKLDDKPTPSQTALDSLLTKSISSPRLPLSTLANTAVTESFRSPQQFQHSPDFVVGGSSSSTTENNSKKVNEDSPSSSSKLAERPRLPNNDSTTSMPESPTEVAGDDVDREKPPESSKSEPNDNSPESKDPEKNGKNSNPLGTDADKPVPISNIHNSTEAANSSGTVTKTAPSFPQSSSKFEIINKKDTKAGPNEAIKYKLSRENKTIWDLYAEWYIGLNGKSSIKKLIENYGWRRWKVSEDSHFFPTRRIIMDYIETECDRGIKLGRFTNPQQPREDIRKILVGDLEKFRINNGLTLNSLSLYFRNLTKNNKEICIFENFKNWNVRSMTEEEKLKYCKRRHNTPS
assay-comment: PBM E-score (8-mer binding enrichment) (E-score (-0.5 to 0.5)); higher = stronger / more preferred TF binding
run-parameters: protein concentration: 100 nM; construct: GST-full length
Whole data set: some 33,000 sequences, median “E-score (-0.5 to 0.5)” near -0.011, cut for the highest 2% near 0.28. For the sample, the highest values were picked, then their nearest neighbours and some sequences at random.
endpoint-name: PBM E-score
Format: numeric value only, no unit, no commentary.

• CCACTTCG = 0.0958
• GCACTAAA = 0.0118
• AGGGAGCA = -0.171

Kindly consider the entry below.
Item: `CGGGAGCA` | PBM E-score: -0.109
